From: ChEMBL document CHEMBL3877298

Recorded Activity by entry
- assay-target: Translocator protein (Mus musculus) (UniProt P50637)
- Sequence (P50637 whole entry, looked up): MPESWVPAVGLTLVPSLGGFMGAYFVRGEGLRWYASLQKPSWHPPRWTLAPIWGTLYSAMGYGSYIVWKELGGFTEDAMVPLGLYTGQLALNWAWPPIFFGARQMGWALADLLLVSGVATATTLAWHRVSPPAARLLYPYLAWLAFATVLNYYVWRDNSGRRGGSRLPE
- test-name: Inhibition of TSPO in mouse HT22 cells assessed as protection against amyloid beta (1 to 42)-induced mitochondrial membrane potential loss by measuring recovery of mitochondrial membrane potential at 5 uM preincubated for 10 mins followed by amyloid beta (1 to 42) addition measured every 1 hr for 3 hrs by JC1 staining based fluorescence assay relative to control
- Type: cell-based
- Parameters: scale not given: the % may be the effect or the level left
- conditions-used: HT-22
Enter your answer as a number in %; do not include the unit.

CCN1CCCC1CNC(=O)c1ccc(Cn2c(CC(=O)Nc3cc(C(C)C)ccc3C)nc3ccccc32)cc1 (stereo not given) ... 68
Cc1ccc(C(C)C)cc1NC(=O)Cn1c(Cc2ccc(Cl)c(Cl)c2)nc2ccccc21 ... 57
CCCN(CCC)C(=O)Cn1c(SCc2ccc(F)cc2)nc2ccccc21 ... 57
O=C(NCCN1CCOCC1)c1ccc(Cn2c(SCc3ccc(F)cc3)nc3ncccc32)cc1 ... 47
COc1ccc(CC(=O)Cn2c(SCc3ccc(F)cc3)nc3ccncc32)c(OC)c1 ... 34

Ask: Notebook: pull reported Activity for Translocator protein (Mus musculus) (UniProt P50637), entry CC(C)(C)c1cc(NC(=O)Cn2c(Cc3ccc(Cl)c(Cl)c3)nc3ccccc32)cc(C(C)(C)C)c1
Reply: 42

Ask: Notebook: pull reported Activity for Translocator protein (Mus musculus) (UniProt P50637), entry Cc1c(Cl)cccc1NC(=O)Cn1c(SCc2ccccc2F)nc2ccncc21
Reply: 30

Ask: Notebook: pull reported Activity for Translocator protein (Mus musculus) (UniProt P50637), entry CCN1CCCC1CNC(=O)c1ccc(Cn2c(Cc3c(Cl)cccc3Cl)nc3ccccc32)cc1 (stereo not given)
Reply: 90

Ask: Notebook: pull reported Activity for Translocator protein (Mus musculus) (UniProt P50637), entry CCCSCCNC(=O)c1ccc(Cn2c(SCc3ccccc3)nc3ncccc32)cc1
Reply: 23

Ask: Notebook: pull reported Activity for Translocator protein (Mus musculus) (UniProt P50637), entry CC(C)(C)c1cc(NC(=O)Cn2c(Cc3ccccc3)nc3ccccc32)cc(C(C)(C)C)c1
Reply: 29

Ask: Notebook: pull reported Activity for Translocator protein (Mus musculus) (UniProt P50637), entry Cc1ccc(C(C)C)cc1NC(=O)Cn1c(Cc2ccccc2)nc2ccccc21
Reply: 24

Ask: Notebook: pull reported Activity for Translocator protein (Mus musculus) (UniProt P50637), entry Cc1ccc(C(C)C)cc1NC(=O)Cn1c(Cc2c(Cl)cccc2Cl)nc2ccccc21
Reply: 74

Ask: Notebook: pull reported Activity for Translocator protein (Mus musculus) (UniProt P50637), entry COc1ccc(NC(=O)Cn2c(SCc3cc(C)ccc3C)nc3ccncc32)c(OC)c1OC
Reply: 43

Ask: Notebook: pull reported Activity for Translocator protein (Mus musculus) (UniProt P50637), entry CN(C)C(=O)c1ccc(Cn2c(Cc3c(Cl)cccc3Cl)nc3ccccc32)cc1
Reply: 73

Ask: Notebook: pull reported Activity for Translocator protein (Mus musculus) (UniProt P50637), entry O=C(NCCCN1CCCCC1)c1ccc(Cn2c(Cc3c(Cl)cccc3Cl)nc3ccccc32)cc1
Reply: 90
